molecular target: U1A S48A (UniProt P09012 10-89, S48A); test: fluorescence polarization
Sequence (P09012 10-89 S48A): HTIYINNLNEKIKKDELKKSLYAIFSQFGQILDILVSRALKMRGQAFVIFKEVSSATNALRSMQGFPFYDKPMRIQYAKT

binder | Kd / µM
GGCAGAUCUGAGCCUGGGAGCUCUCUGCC (structured_RNA) [TAR RNA] | 14.2
